Entry source: ChEMBL document CHEMBL1139414

- Test target: Protein kinase C alpha type (Mus musculus, UniProt P20444)
pKi: −log10 of the molar value.
Quick rule: pKi of at least 7 means condition met, below that means condition not met.

Could you verify whether the entry CC(C)C(=O)OCC1(CO)C/C(=C/c2ccc(F)cc2)C(=O)O1 (racemic) shows pKi of no less than 7?
condition not met

Could you verify whether the entry CCCCC(CC)C(=O)OCC1(CO)C/C(=C/c2ccccc2C(F)(F)F)C(=O)O1 (racemic) shows pKi of no less than 7?
condition met

Could you verify whether the entry CCCCC(CC)C(=O)OCC1(CO)C/C(=C/c2ccc(F)c(Cl)c2)C(=O)O1 (racemic) shows pKi of no less than 7?
condition met

Could you verify whether the entry O=C1OC(CO)(COC(=O)c2ccc([N+](=O)[O-])cc2)C/C1=C/C1CCCCC1 (racemic) shows pKi of no less than 7?
condition not met

Could you verify whether the entry COc1ccc(/C=C2\CC(CO)(COC(=O)c3c(C(C)C)cc(C(C)C)cc3C(C)C)OC2=O)cc1 (racemic; form 1) shows pKi of no less than 7?
condition met

Please find the next compound below.
Could you verify whether the entry CCCCCC/C=C1/CC(CO)(COC(=O)CCCCCC)OC1=O (racemic) shows pKi of no less than 7?
condition met

---

- Test target: UniProt P20444
Items are presented alongside their recorded Ki.
I only need the number, in µM, no unit after it.

Past entries and their recorded results:
Form field Ki, entry O=C1OC(CO)(COC(=O)C(c2ccccc2)c2ccccc2)C/C1=C/c1ccc(F)c(Cl)c1 (racemic) : 0.073

Form field Ki, entry CC(C)C(=O)OCC1(CO)C/C(=C/c2ccc(OC(F)(F)F)cc2)C(=O)O1 (racemic) : 0.0547

Form field Ki, entry CC(C)c1cc(C(C)C)c(C(=O)OCC2(CO)C/C(=C/c3ccccc3)C(=O)O2)c(C(C)C)c1 (racemic) : 0.16

Form field Ki, entry CN(C)c1ccc(/C=C2\CC(CO)(COC(=O)c3ccc(N(C)C)cc3)OC2=O)cc1 (racemic; form 2) : 1.08

Form field Ki, entry CCCCC(CC)C(=O)OCC1(CO)C/C(=C/C2CCCCC2)C(=O)O1 (racemic) : 0.0302

Next:
Form field Ki, entry CC(C)(C)CC(=O)OCC1(CO)C/C(=C/c2ccc(F)c(Cl)c2)C(=O)O1 (racemic) : 0.0264

Form field Ki, entry Cc1cc(C)c(C(=O)OCC2(CO)C/C(=C/c3ccc(C(F)(F)F)cc3)C(=O)O2)c(C)c1 (racemic) : 0.0251

Form field Ki, entry Cc1cc(C)c(C(=O)OCC2(CO)C/C(=C/c3ccc([N+](=O)[O-])cc3)C(=O)O2)c(C)c1 (racemic) : 0.0375

---

As a worked illustration, we turn to Ki data collected for Protein kinase C alpha type (Mus musculus, UniProt P20444).
I only need the number, in nM, no unit after it.

Form field Ki, entry CCC(C(=O)OCC1(CO)C/C(=C/c2ccc(Br)cc2)C(=O)O1)c1ccccc1 (racemic) : 33

Next:
Form field Ki, entry CC(C)C(=O)OCC1(CO)C/C(=C/c2ccc(Cl)cc2)C(=O)O1 (racemic) : 88.2

Form field Ki, entry CCC(C(=O)OCC1(CO)C/C(=C/c2cccc(C(F)(F)F)c2)C(=O)O1)c1ccccc1 (racemic) : 30.2

Form field Ki, entry CCCCC(CC)C(=O)OCC1(CO)C/C(=C\c2ccc(F)c(Br)c2)C(=O)O1 (racemic; form 1) : 6.1

Form field Ki, entry CCCCC(/C=C1/CC(CO)(COC(=O)c2ccc([N+](=O)[O-])cc2)OC1=O)CC (racemic; form 1) : 460
